Reference for the values: PubChem BioAssay (EPA / NIEHS)

Experiment: CCTE_Mundy_HCI_Cortical_Synap_Neur_Matur_NeuriteLength: CCTE's Synaptogenesis and Neurite Maturation Assay in rat cortical cells for Neurite Length, Mundy Lab (AID 2284214)
Activity calls are given as the source filed them. How the source made its calls: active means hit-call score of the fitted dose curve at least 0.9, where 1 is the maximum; inactive means score below 0.9.
Use one of these outcomes when replying: active, inactive

Before answering, review these 6 worked examples.
1) NNC(=O)c1ccncc1 inactive
2) CCCC(CCC)C(=O)O inactive
3) Cn1cc[nH]c1=S inactive
4) COc1cc2c(c(OC)c1OC)-c1ccc(OC)c(=O)cc1[C@@H](NC(C)=O)CC2 active
5) C[C@]12C=CC(=O)C=C1CC[C@H]1[C@@H]3C[C@@H](O)[C@](O)(C(=O)CO)[C@@]3(C)C[C@H](O)[C@@]12F active
6) c1ccc2cc3ccccc3cc2c1 inactive

Continue with the molecule presented below.
QUERY: Write down the call the test reported for this molecule. Item: `OC(Cn1cncn1)(Cn1cncn1)c1ccc(F)cc1F`
RESULT: inactive
